experimental_details: mitochondrial membrane potential change in A549 cells, profiling panel, cell-based, JC-1 fluorescence, basal, 24 h, 100 nL (AID 1138);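 also: A549 lung adenocarcinoma cells under basal conditions with no added stimulus; test concentration not given here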
reported_conditions: higher = more signal
Decide using z-score: a value greater than or equal to -0.5 is True, a smaller one is False.

compound	assigned_label
COC(=O)[C@H](Cc1ccccc1)N1CC(C)(OC)O[C@@H](Cc2ccccc2)[C@H]1/C=C/C1CC1 (some centres undefined)	True
O=C(c1ccccc1)N1Cc2ccccc2C[C@@]2(N=C(c3ccc(OCCCO)cc3)O[C@H]2c2ccccc2)C1=O	False
COC(=O)[C@@]1(Cc2ccc(F)cc2)[C@H]2c3cc(C(=O)N(C)C)n(Cc4ccc(C(F)(F)F)nc4)c3C[C@H]2CN1C(=O)c1ccccc1	True
COc1ccc(NN2C(C(O)c3ccccc3)C=CC3C(=O)N(C4CCCCC4)C(=O)C32)cc1 (centres undefined)	True
C#CCN(C(=O)OC(C)(C)C)[C@H](CO)c1ccccc1	False

Next, consider the following compound.
Check if z-score >= -0.5 (inclusive). Item: C=C(C(=O)CC[C@@H](OC(=O)c1ccccc1-c1ccccc1C(=O)O)c1ccc(CO)o1)C(C)C
True

====

system_tested: Neurogenic locus notch homolog protein 3 (Homo sapiens) (UniProt Q9UM47)
Sequence (Q9UM47 whole entry, looked up): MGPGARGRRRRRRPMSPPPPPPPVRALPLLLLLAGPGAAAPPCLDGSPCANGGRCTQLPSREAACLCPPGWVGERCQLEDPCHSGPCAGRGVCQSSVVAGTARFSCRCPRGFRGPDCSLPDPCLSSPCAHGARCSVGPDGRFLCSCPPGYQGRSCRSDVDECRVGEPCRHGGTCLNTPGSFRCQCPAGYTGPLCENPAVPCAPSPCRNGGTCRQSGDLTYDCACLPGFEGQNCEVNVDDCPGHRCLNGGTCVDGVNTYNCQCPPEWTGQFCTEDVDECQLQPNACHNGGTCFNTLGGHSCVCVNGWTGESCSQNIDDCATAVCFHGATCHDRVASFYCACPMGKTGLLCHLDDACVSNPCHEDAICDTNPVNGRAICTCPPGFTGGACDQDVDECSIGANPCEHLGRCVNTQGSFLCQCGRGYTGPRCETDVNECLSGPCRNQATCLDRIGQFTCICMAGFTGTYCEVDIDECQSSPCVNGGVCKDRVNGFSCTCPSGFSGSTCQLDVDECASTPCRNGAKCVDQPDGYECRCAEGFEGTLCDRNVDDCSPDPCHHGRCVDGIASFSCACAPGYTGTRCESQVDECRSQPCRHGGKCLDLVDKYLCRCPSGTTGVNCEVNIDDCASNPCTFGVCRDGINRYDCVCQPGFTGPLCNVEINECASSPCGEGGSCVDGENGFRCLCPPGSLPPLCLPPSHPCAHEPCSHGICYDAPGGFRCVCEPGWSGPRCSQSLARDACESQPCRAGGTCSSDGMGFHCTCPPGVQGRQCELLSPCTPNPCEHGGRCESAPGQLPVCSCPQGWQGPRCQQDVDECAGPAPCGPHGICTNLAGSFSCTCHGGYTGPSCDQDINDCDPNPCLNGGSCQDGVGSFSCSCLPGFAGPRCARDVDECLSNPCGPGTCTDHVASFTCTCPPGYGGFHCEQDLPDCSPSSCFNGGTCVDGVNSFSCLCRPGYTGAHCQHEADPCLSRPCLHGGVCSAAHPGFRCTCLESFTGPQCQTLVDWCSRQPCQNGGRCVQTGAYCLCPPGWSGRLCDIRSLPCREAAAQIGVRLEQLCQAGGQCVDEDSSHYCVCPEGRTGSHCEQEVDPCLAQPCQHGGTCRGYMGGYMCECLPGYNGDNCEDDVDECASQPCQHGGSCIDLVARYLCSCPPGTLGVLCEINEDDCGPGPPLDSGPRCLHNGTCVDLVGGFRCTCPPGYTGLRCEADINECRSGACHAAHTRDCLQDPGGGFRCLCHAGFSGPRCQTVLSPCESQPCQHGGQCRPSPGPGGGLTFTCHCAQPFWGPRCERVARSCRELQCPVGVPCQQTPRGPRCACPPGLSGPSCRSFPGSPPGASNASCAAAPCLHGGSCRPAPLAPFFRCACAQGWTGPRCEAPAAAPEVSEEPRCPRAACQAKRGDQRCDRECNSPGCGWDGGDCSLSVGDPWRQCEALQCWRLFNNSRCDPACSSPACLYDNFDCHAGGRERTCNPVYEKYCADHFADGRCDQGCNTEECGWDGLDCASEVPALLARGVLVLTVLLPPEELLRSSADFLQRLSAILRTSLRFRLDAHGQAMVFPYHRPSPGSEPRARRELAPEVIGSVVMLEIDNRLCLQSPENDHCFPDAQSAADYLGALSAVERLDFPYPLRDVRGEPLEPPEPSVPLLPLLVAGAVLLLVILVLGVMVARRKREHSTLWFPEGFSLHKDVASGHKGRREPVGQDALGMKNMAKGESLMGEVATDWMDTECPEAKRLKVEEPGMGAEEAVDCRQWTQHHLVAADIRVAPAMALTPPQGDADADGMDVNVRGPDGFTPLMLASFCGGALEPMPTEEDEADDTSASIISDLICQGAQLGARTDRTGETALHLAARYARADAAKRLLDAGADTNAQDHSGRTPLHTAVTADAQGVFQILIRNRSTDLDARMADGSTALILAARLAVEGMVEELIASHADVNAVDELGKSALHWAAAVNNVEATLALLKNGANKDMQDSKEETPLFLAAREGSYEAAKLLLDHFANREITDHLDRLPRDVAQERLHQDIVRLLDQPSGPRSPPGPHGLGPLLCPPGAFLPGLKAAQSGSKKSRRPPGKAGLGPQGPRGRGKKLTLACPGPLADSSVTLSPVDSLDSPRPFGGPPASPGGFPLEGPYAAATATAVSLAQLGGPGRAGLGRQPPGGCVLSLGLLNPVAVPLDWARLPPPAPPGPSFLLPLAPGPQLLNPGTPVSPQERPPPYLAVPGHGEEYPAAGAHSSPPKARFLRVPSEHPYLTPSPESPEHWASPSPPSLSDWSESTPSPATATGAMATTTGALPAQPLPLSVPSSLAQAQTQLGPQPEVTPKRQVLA
experimental_details: NOTCH3 binders on small-molecule microarray, primary screen, biochemical, 635/667 nm fluorescence (AID 1096)
reported_conditions: NOTCH3 binding, 635 nm fluorescence, higher = more signal
Give class 1 when the value for composite z-score is at least 1. Give class 0 when it is less.

Solved cases below.
compound	system_tested	assigned_label
CN1C(=O)C2C=CC(C(O)c3cccs3)N(N(c3ccccc3)c3ccccc3)C2C1=O (stereo not drawn)	Neurogenic locus notch homolog protein 3 (Homo sapiens) (UniProt Q9UM47)	class 0
C=CCN1C(=O)[C@]2(O[C@H](CCO)[C@@H]([Si](C)(C)c3ccc(OC)cc3)[C@@H]2C)c2cc(N3C(=O)c4ccccc4Oc4ccccc43)ccc21	Neurogenic locus notch homolog protein 3 (Homo sapiens) (UniProt Q9UM47)	class 0
COCCOC(=O)N1C(=O)[C@@]2(c3cc(C#CC4=CCCCC4)ccc31)[C@H](c1ccc(O)cc1)N1[C@H](c3ccccc3)[C@H](c3ccccc3)OC(=O)[C@H]1[C@@H]2C(=O)N1CCc2cc(OC)c(OC)cc2C1	Neurogenic locus notch homolog protein 3 (Homo sapiens) (UniProt Q9UM47)	class 0
CN1C(=O)C2C=CC(C(O)COCc3ccccc3)N(Nc3ccc([N+](=O)[O-])cc3[N+](=O)[O-])C2C1=O (stereo not drawn)	Neurogenic locus notch homolog protein 3 (Homo sapiens) (UniProt Q9UM47)	class 0
COc1ccc([Si](C)(C)[C@H]2[C@H](CC(=O)N3CCC[C@H]3CO)O[C@@]3(C(=O)N(C)c4c(Br)cc(C)cc43)[C@@H]2C)cc1	Neurogenic locus notch homolog protein 3 (Homo sapiens) (UniProt Q9UM47)	class 0
CC(C)c1ccc(NN2C(C(O)c3ccccc3)C=CC3C(=O)N(c4ccccc4)C(=O)C32)cc1 (stereo not drawn)	Neurogenic locus notch homolog protein 3 (Homo sapiens) (UniProt Q9UM47)	class 1

API: above_or_equal(metric=composite z-score, cutoff=1) for item CC1C2C(CCCO)=CC(C3C(=O)N(C)C(=O)C23)N1Cc1cccc(OC(F)(F)F)c1 (stereo not drawn)
class 0

Has C=C(CC1([C@@H](NP(=O)(c2ccccc2)c2ccccc2)[C@H]2C[C@@H]2CCCC)CC1)c1cccc(OC)c1 a recorded composite z-score greater than or equal to 1?
class 0

Is reported composite z-score greater than or equal to 1 here: Cc1ccc(S(=O)(=O)N2[C@@H](c3ccccc3)C(C(=O)O)=CC[C@H]2c2ccc(F)cc2)cc1
class 0

Has CS(=O)(=O)CCOC(=O)C1=CC(CCCO)=CC(C2CC2)N(Cc2sc3ccccc3c2Cl)C=C1C(=O)OCCS(C)(=O)=O (stereo not drawn) a recorded composite z-score greater than or equal to 1?
class 1

Dear colleague, could you confirm whether O=C1OCCC/C=C\[C@H]2OC34C=CCN(Cc5ccccc5)C(=O)[C@H]3N(CCO)C(=O)[C@@H]4C12 (stereo partly drawn) has composite z-score at or above 1?
class 0

====

experimental_details: binders from COS7 lysate, DM2A8 probe, primary screen, torsin A project, cell lysate, small-molecule microarray, fluorescence 635/667 (AID 1065)
reported_conditions: higher = more signal, COS7 lysate expressing mutant human TOR1A
Label scheme for composite z-score: lower than 0.4 is Not met, 0.4 and above is Met.

Here are 3 compounds together with their reported answers.
compound	assigned_label
C=CC[C@H](O)c1ccc(O)c(F)c1	Not met
CCOC(=O)C[C@H]1[C@H](OC(=O)c2ccccc2-c2ccccc2)[C@@H](NC(=O)CC(C)C)c2cc(OCCCO)ccc2N1C(=O)c1ccccc1	Not met
COc1ccc(CCNC(=O)[C@@H]2c3ccccc3C(=O)N(C(C)C)[C@H]2c2ccc(CO)cc2)cc1	Not met

Does composite z-score meet or surpass 0.4 for COc1cc(Cc2cc3c(c(CCc4ccccc4)n2)[Si](C(C)C)(C(C)C)O[C@H]3c2ccccc2)cc(OC)c1OC ?
Not met

Please indicate if the recorded composite z-score for C=C(CC1([C@@H](NP(=O)(c2ccccc2)c2ccccc2)[C@H]2C[C@@H]2CCCC)CC1)c1cccc(OC)c1 meets or exceeds 0.4.
Not met

====

Form field: composite z-score (one value per entry).
experimental_details: anti-His antibody binders, primary screen, artefact control for SMM control protein annotation, biochemical, small-molecule microarray, 635 nm fluorescence (AID 1128);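 also: score merges feature fluorescence with signal-to-noise for each printed compound spot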
reported_conditions: anti-His Alexa647 antibody binding, higher = more signal
Lab note: jot the number down without any unit.

compound	composite z-score
[N-]=[N+]=NCc1ccccc1[C@H]1OC(c2ccc(OCCCO)cc2)=N[C@@]1(CCS(=O)(=O)c1ccccc1)C(=O)O	0.583
C=CC[C@]1(C(=O)NCCN2CCOCC2)N=C(c2ccc(OCCCO)cc2)O[C@H]1c1ccccc1	0.566
COC(=O)[C@@]1(Cc2ccc(F)cc2)[C@H]2c3cc(C(=O)N(C)C)n(Cc4ccsc4Br)c3C[C@H]2CN1C(=O)c1ccccc1	0.77
COCCOC(=O)N1C(=O)[C@@]2(c3cc(C#CCNC(N)=O)ccc31)[C@H](c1ccccc1OCCO)N1[C@H](c3ccccc3)[C@H](c3ccccc3)OC(=O)[C@H]1[C@@H]2C(=O)N1CCCCCCC1	0.364
CCOC(=O)C1=CCC(c2ccncc2)N(S(=O)(=O)c2ccc(C)cc2)C1 (configuration not stated)	0.871

Can you share its composite z-score? I mean this compound: CN1C(=O)C2C=CC(C(O)COCc3ccccc3)N(Nc3ccc([N+](=O)[O-])cc3[N+](=O)[O-])C2C1=O (configuration not stated)
-1.08

I would be grateful if you could share the reported composite z-score for CN(C)CCCC[C@@H]1NC(=O)[C@H]2C[C@@H](C(=O)NCCCCCCNC(=O)CS)[C@@H](c3cccc(OCCO)c3)N2C1=O .
1.17

====

experimental_details: RPMI8226 myeloma cell viability, profiling panel, resazurin fluorescence, basal, 24 h, PK04 Diversity Set (AID 1180);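 also: RPMI8826 multiple myeloma cell line at 5000 cells per well; test concentration not given here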
reported_conditions: higher = more signal
Group membership follows z-score per the scheme low bracket = under -1, middle bracket = from -1 up to 0.04, high bracket = 0.04 and over

Check out these entries, answers already filled in.
compound	assigned_label
C[C@]1(C(=O)NC2CC2)c2ccccc2C(=O)N(Cc2cc(F)cc(C(F)(F)F)c2)[C@H]1c1ccc(CO)cc1	high bracket
COc1ccc(C(=O)Nc2cccc(CN3C(=O)[C@]4(O[C@H](CC(=O)N(CCO)Cc5ccccc5)[C@@H]([Si](C)(C)c5ccc(OC)cc5)[C@@H]4C)c4ccccc43)c2)cc1	low bracket
CC(C)Cc1ccc(CN2CC[C@@H](NC(=O)c3ccccc3)C2)cc1	middle bracket
COc1ccc(CCNC(=O)[C@@]2(C)c3ccccc3C(=O)N(Cc3ccc(OC(F)(F)F)cc3)[C@H]2c2ccc(CO)cc2)cc1	high bracket

State the class of the compound shown: C=C(CCCC)/C(=C/C[C@@H](OC(C)=O)c1ccc(OCCO)cc1)c1cc(C(=O)OC)ccc1OC
middle bracket

Category lookup for the compound CN1C(=O)C2C=CC(C(O)c3ccc(I)cc3)N(N(c3ccccc3)c3ccccc3)C2C1=O (stereo not given)
low bracket

Sort Cc1ccc(S[C@]2(C(=O)NC3CC3)CC(=O)N(C3Cc4ccccc4C3)[C@@H]2c2ccc(CO)cc2I)cc1 into one of the categories.
low bracket

Dear colleague, I would appreciate it if you could identify the bin for CCCC1(C(=O)OC)C=C2C(=C(C(C)C)C(=O)C2C)CN1 (stereo not given) and reply at your convenience.
low bracket

Band for the recorded z-score of C=CCN1C(=O)[C@]2(O[C@H](CCO)[C@@H]([Si](C)(C)c3ccc(OC)cc3)[C@@H]2C)c2cc(N3C(=O)c4ccccc4Oc4ccccc43)ccc21 ?
low bracket

====

# Lookup of reported z-score keyed by entry
experimental_details: basal RPMI8226 viability, no added stimulus, profiling panel, cell-based, calcein-AM fluorescence, 48 h, PK04 Diversity Set (AID 1166);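 also: cells grown under basal conditions without added stimulus; test concentration not given here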
reported_conditions: RPMI8226 myeloma viability, higher = more signal
Reply with the value as a number alone.

Guide cases for z-score, answers given:
molecule	z-score
CN(C)CCCC[C@@H]1NC(=O)[C@H]2C[C@@H](C(=O)NCCCCCCNC(=O)CS)[C@@H](c3cccc(OCCO)c3)N2C1=O	-0.357
[N-]=[N+]=NCc1ccccc1[C@H]1OC(c2ccc(OCCCO)cc2)=N[C@@]1(CCS(=O)(=O)c1ccccc1)C(=O)NCCN1CCOCC1	0.511
COc1ccc(C#Cc2ccc3c(c2)[C@]2(C(=O)N3)[C@H](c3ccccc3OCCO)N3[C@H](c4ccccc4)[C@H](c4ccccc4)OC(=O)[C@H]3[C@@H]2C(=O)NC[C@H](O)c2ccccc2)cc1	-4.12
CN1C(=O)C2C=CC(C(O)c3ccc([N+](=O)[O-])cc3)N(Nc3ccccc3)C2C1=O (centres undefined)	-0.772
CC(C)Cc1ccc(CN2CC[C@@H](NC(=O)c3ccccc3)C2)cc1	-2.77
O=C1OC[C@@H](c2ccccc2)n2cc(/C=C/c3ccccc3)cc21	-0.597
CC[C@@H](O[Si](C#C[Si](C(C)C)(C(C)C)C(C)C)(C(C)C)C(C)C)c1cn([C@H](CO)Cc2ccccc2)nn1	0.944
[N-]=[N+]=NCc1ccccc1[C@H]1OC(c2ccc(OCCCO)cc2)=N[C@@]1(Cc1ccccc1N=[N+]=[N-])C(N)=O	-1.76
CN(C)C(=O)[C@]1(CCS(=O)(=O)c2ccccc2)N=C(c2ccc(OCCCO)cc2)O[C@@H]1c1ccccc1CN=[N+]=[N-]	0.382
O=C(c1ccccc1)N1Cc2ccccc2C[C@@]2(N=C(c3ccc(OCCCO)cc3)O[C@H]2c2ccccc2)C1=O	-4.05

Which z-score is reported for this molecule? COCCOC(=O)N1C(=O)[C@@]2(c3cc(C#CCNC(N)=O)ccc31)[C@H](c1ccc(O)cc1)N1[C@H](c3ccccc3)[C@H](c3ccccc3)OC(=O)[C@H]1[C@@H]2C(=O)N1CCc2cc(OC)c(OC)cc2C1
0.542

Given the molecule COc1cc2c(cc1O)C(C)N(Cc1sc3ccccc3c1Cl)CC2 (centres undefined) , what is its reported z-score?
0.624

Record request: z-score value, item COC(=O)[C@@]1(Cc2ccccc2)[C@H]2c3cc(C(=O)N(C)C)n(Cc4nc5ccccc5[nH]4)c3C[C@H]2CN1C(=O)c1ccccc1
-0.191

Sample O=C1c2ccccc2[C@@]2(Cc3ccccc3N(CC(F)(F)F)C2=O)[C@H](c2ccc(CO)cc2)N1Cc1ccccc1 — what was its z-score?
-2.24
